Value source: patent US7683061B2

target: TNFα / p75 TNFα receptor (CD120b) (Homo sapiens, UniProt P01375); test: Binding ELISA: TNF-α binding to plastic coated TNF-R2; settings: 10^−4 M
Think of 40% as a floor: if inhibition at 100 µM stands on it or above, it is True; beneath it, False.

Problem: Please indicate if the recorded inhibition at 100 µM for Oc1ccc(CCNc2nc(NCCCNc3nc(NCCc4ccc(O)cc4)nc(Nc4ccccc4)n3)nc(Nc3ccccc3)n2)cc1 [Compound 25] meets or exceeds 40%.
Solution: True

Problem: Please indicate if the recorded inhibition at 100 µM for Nc1ccc(CCNc2nc(Nc3ccc(CCNc4nc(NCCO)nc(Nc5cccc(N)c5)n4)cc3)nc(Nc3cccc(N)c3)n2)cc1 [Compound 19a] meets or exceeds 40%.
Solution: False

Problem: Please indicate if the recorded inhibition at 100 µM for Nc1ccc(CCNc2nc(NCCNc3nc(NCCc4ccc(N)cc4)nc(Nc4cccc(N)c4)n3)nc(Nc3cccc(N)c3)n2)cc1 [Compound 7] meets or exceeds 40%.
Solution: False

Problem: Please indicate if the recorded inhibition at 100 µM for Cc1ccccc1Nc1nc(NCCNc2nc(NCCc3ccc(O)cc3)nc(Nc3ccccc3C)n2)nc(NCCc2ccc(O)cc2)n1 [Compound 5] meets or exceeds 40%.
Solution: False

Problem: Please indicate if the recorded inhibition at 100 µM for CN(C)CCCC(=O)Oc1ccc(CCNc2nc(NCCNc3nc(NCCc4ccc(OC(=O)CCCN(C)C)cc4)nc(Nc4ccccc4)n3)nc(Nc3ccccc3)n2)cc1 [Compound 12] meets or exceeds 40%.
Solution: False

Problem: Please indicate if the recorded inhibition at 100 µM for Oc1ccc(CCNc2nc(NCCNc3nc(NCCc4ccc(O)cc4)nc(Nc4ccccc4)n3)nc(Nc3ccccc3)n2)cc1 [Compound 1] meets or exceeds 40%.
Solution: True

Problem: Please indicate if the recorded inhibition at 100 µM for NCCc1ccc(Nc2nc(NCCNc3nc(Nc4ccccc4)nc(Nc4ccc(CCN)cc4)n3)nc(Nc3ccccc3)n2)cc1 [Compound 4] meets or exceeds 40%.
Solution: False

====

So I've got a bunch of compounds here, and I need their IC50 values.
target: Fc portion of human IgG (binding of protein A to human IgG); construct: fused on or other part: Horseradish peroxidase chemically conjugated to the IgG (HRP-IgG); test: Competitive protein A binding ELISA; conditions: Table 1; PBS-20% DMSO; read-out: IC50 (μM): Assay in PBS-20% DMSO
Please append the unit to your numeric answer.

Problem: Using the record for Nc1ccc(CCNc2nc(Nc3ccccc3)nc(N3CCN(c4nc(NCCc5ccc(N)cc5)nc(Nc5ccccc5)n4)CC3)n2)cc1 [Compound 36] , report its IC50.
Solution: 16 µM

Problem: Using the record for Cc1ccccc1Nc1nc(NCCNc2nc(NCCc3ccc(O)cc3)nc(Nc3ccccc3C)n2)nc(NCCc2ccc(O)cc2)n1 [Compound 5] , report its IC50.
Solution: 36 µM

Problem: Using the record for Nc1ccc(CCNc2nc(Nc3ccccc3)nc(Nc3cccc(CNc4nc(NCCO)nc(Nc5ccccc5)n4)c3)n2)cc1 [Compound 35] , report its IC50.
Solution: 1 µM

Problem: Using the record for CC(=O)NCCNc1nc(NCCc2ccc(Nc3nc(NCCc4ccc(O)cc4)nc(Nc4ccccc4)n3)cc2)nc(Nc2ccccc2)n1 [Compound 15] , report its IC50.
Solution: 35 µM

Problem: Using the record for Oc1ccc(CCNc2nc(Nc3ccccc3)nc(Nc3ccc(CNc4nc(NCCc5cnc[nH]5)nc(Nc5ccccc5)n4)cc3)n2)cc1 [Compound 27] , report its IC50.
Solution: 28 µM

Problem: Using the record for Nc1cccc(Nc2nc(Nc3cccc(Nc4nc(Nc5cccc(N)c5)nc(NC(CO)CO)n4)c3)nc(NC(CO)CO)n2)c1 [Compound 50] , report its IC50.
Solution: 1 µM

====

molecular target: TNFα / p55 TNFα receptor (CD120a) (Homo sapiens, UniProt P01375); assay: Binding ELISA: TNF-α binding to plastic coated TNF-R1; settings: 10^−4 M
Sequence (P01375 77-233 limits assumed): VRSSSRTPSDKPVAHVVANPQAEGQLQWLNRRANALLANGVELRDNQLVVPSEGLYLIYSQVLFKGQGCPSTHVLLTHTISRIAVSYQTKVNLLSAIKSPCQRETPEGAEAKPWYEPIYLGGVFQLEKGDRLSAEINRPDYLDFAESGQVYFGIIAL
So I've got a bunch of compounds here, and I need their inhibition at 100 µM values.
Field: numeric (%). Do not append units.

Problem: Using the record for NCCc1ccc(Nc2nc(NCCNc3nc(Nc4ccccc4)nc(Nc4ccc(CCN)cc4)n3)nc(Nc3ccccc3)n2)cc1 [Compound 4] , report its inhibition at 100 µM.
Solution: -69.4

Problem: Using the record for Cc1ccccc1Nc1nc(NCCNc2nc(NCCc3ccc(O)cc3)nc(Nc3ccccc3C)n2)nc(NCCc2ccc(O)cc2)n1 [Compound 5] , report its inhibition at 100 µM.
Solution: 15.4

Problem: Using the record for Nc1ccc(CCNc2nc(Nc3ccc(CCNc4nc(NCCO)nc(Nc5cccc(N)c5)n4)cc3)nc(Nc3cccc(N)c3)n2)cc1 [Compound 19a] , report its inhibition at 100 µM.
Solution: 13.3

Problem: Using the record for Oc1ccc(CCNc2nc(NCCNc3nc(NCCc4ccc(O)cc4)nc(Nc4ccccc4)n3)nc(Nc3ccccc3)n2)cc1 [Compound 1] , report its inhibition at 100 µM.
Solution: 46

Problem: Using the record for CN(C)CCCC(=O)Oc1ccc(CCNc2nc(NCCNc3nc(NCCc4ccc(OC(=O)CCCN(C)C)cc4)nc(Nc4ccccc4)n3)nc(Nc3ccccc3)n2)cc1 [Compound 12] , report its inhibition at 100 µM.
Solution: -8.4

Problem: Using the record for Oc1ccc(CCNc2nc(NCCCNc3nc(NCCc4ccc(O)cc4)nc(Nc4ccccc4)n3)nc(Nc3ccccc3)n2)cc1 [Compound 25] , report its inhibition at 100 µM.
Solution: 22.9

Problem: Using the record for Nc1ccc(CCNc2nc(NCCNc3nc(NCCc4ccc(N)cc4)nc(Nc4cccc(N)c4)n3)nc(Nc3cccc(N)c3)n2)cc1 [Compound 7] , report its inhibition at 100 µM.
Solution: 32.6

====

system: TNFα-induced apoptosis, WEHI-13VAR cells; assay: TNFα induced apoptosis in WEHI-13VAR cells (MTT); format: cell-based, murine; details: Mus musculus; 5 × 10^−6M
So I've got a bunch of compounds here, and I need their inhibition at 5 µM values.
Field: numeric (%). Do not append units.

Problem: Using the record for COC(=O)c1ccccc1Nc1nc(NCCNc2nc(NCCc3ccc(O)cc3)nc(Nc3ccccc3C(=O)OC)n2)nc(NCCc2ccc(O)cc2)n1 [Compound 2] , report its inhibition at 5 µM.
Solution: 37.3

Problem: Using the record for OCCNc1nc(NCC2CCN(c3nc(NCCO)nc(Nc4ccccc4)n3)CC2)nc(Nc2ccccc2)n1 [Compound 26] , report its inhibition at 5 µM.
Solution: 9.7

Problem: Using the record for Nc1cccc(CNc2nc(Nc3ccc(CNc4nc(N)nc(Nc5cccc(N)c5)n4)cc3)nc(Nc3cccc(N)c3)n2)c1 [Compound 45] , report its inhibition at 5 µM.
Solution: -0.3

Problem: Using the record for Oc1ccc(CCNc2nc(NCCCNc3nc(NCCc4ccc(O)cc4)nc(Nc4ccccc4)n3)nc(Nc3ccccc3)n2)cc1 [Compound 25] , report its inhibition at 5 µM.
Solution: 27.5

Problem: Using the record for NCCc1ccc(Nc2nc(NCCNc3nc(Nc4ccccc4)nc(Nc4ccc(CCN)cc4)n3)nc(Nc3ccccc3)n2)cc1 [Compound 4] , report its inhibition at 5 µM.
Solution: 2.4

Problem: Using the record for CN(C)CCCC(=O)Oc1ccc(CCNc2nc(NCCNc3nc(NCCc4ccc(OC(=O)CCCN(C)C)cc4)nc(Nc4ccccc4)n3)nc(Nc3ccccc3)n2)cc1 [Compound 12] , report its inhibition at 5 µM.
Solution: 36.9

Problem: Using the record for Nc1cccc(Nc2nc(NCCO)nc(Nc3ccc(CNc4nc(Nc5cccc(N)c5)nc(Nc5cccc(N)c5)n4)cc3)n2)c1 [Compound 42] , report its inhibition at 5 µM.
Solution: -3.1

Problem: Using the record for COC(=O)c1ccccc1Nc1nc(NCCNc2nc(N)nc(NCCc3ccc(O)cc3)n2)nc(NCCc2ccc(O)cc2)n1 [Compound 3] , report its inhibition at 5 µM.
Solution: 0.5

Problem: Using the record for Oc1ccc(CCNc2nc(NCCNc3nc(NCCc4ccc(O)cc4)nc(Nc4ccccc4)n3)nc(Nc3ccccc3)n2)cc1 [Compound 1] , report its inhibition at 5 µM.
Solution: 14.3

Problem: Using the record for Cc1ccccc1Nc1nc(NCCNc2nc(NCCc3ccc(O)cc3)nc(Nc3ccccc3C)n2)nc(NCCc2ccc(O)cc2)n1 [Compound 5] , report its inhibition at 5 µM.
Solution: 28.9

====

test system: TNFα-induced apoptosis, WEHI-13VAR cells; experiment: TNFα induced apoptosis in WEHI-13VAR cells (MTT); assay type: cell-based, murine; conditions: Mus musculus; 2 × 10^−5M
assayMetric: inhibition at 20 µM
Please append the unit to your numeric answer.

Problem: Entry `Oc1ccc(CCNc2nc(NCCCNc3nc(NCCc4ccc(O)cc4)nc(Nc4ccccc4)n3)nc(Nc3ccccc3)n2)cc1` , system TNFα-induced apoptosis, WEHI-13VAR cells: what inhibition at 20 µM was measured?
Solution: -0.7%

Problem: Entry `OCCNc1nc(NCC2CCN(c3nc(NCCO)nc(Nc4ccccc4)n3)CC2)nc(Nc2ccccc2)n1` , system TNFα-induced apoptosis, WEHI-13VAR cells: what inhibition at 20 µM was measured?
Solution: 38%

Problem: Entry `COC(=O)c1ccccc1Nc1nc(NCCNc2nc(N)nc(NCCc3ccc(O)cc3)n2)nc(NCCc2ccc(O)cc2)n1` , system TNFα-induced apoptosis, WEHI-13VAR cells: what inhibition at 20 µM was measured?
Solution: 44.6%

Problem: Entry `NCCc1ccc(Nc2nc(NCCNc3nc(Nc4ccccc4)nc(Nc4ccc(CCN)cc4)n3)nc(Nc3ccccc3)n2)cc1` , system TNFα-induced apoptosis, WEHI-13VAR cells: what inhibition at 20 µM was measured?
Solution: 25.3%
